Kd values for the molecules below.
- system_name: GDP-bound KRAS wild-type protein (Homo sapiens, UniProt P01116)
- Sequence (P01116 1-188 isoform P01116-2): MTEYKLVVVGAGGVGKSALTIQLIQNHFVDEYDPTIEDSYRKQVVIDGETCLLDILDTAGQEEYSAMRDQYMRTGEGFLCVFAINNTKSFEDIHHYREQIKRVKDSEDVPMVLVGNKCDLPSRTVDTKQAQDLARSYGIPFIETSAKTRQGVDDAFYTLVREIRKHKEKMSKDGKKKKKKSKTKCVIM
- experimental_details: Binding to KRAS by surface plasmon resonance (SPR), dissociation constant KD
- cond: Single Cycle Kinetics, 1:1 binding model

molecule	Kd, nM
CCOC[C@H]1C(=O)N[C@@H]([C@@H](C)CC)C(=O)N(C2CC2)CC(=O)N(C)[C@H]2C/C=C\CCN(C2=O)[C@@H](CC2CCCCC2)C(=O)N(C)CC(=O)N[C@@H](CCc2ccc(C(F)(F)F)c(OC)c2)C(=O)N2C[C@H](OCC)C[C@H]2C(=O)N(C)C2(CCC2)C(=O)N(C)[C@@H](C2CCCC2)C(=O)N(C)[C@H](C(=O)N(C)C)CC(=O)N1C [PP2342]	0.55
CCO[C@@H]1C[C@H]2C(=O)NC3(CCCC3)C(=O)N(C)[C@@H](C3CCCC3)C(=O)N(C)[C@H](C(=O)N(C)C)CC(=O)N(C)[C@@H](CC)C(=O)N[C@@H]([C@@H](C)CC)C(=O)N(C)CC(=O)N(C)[C@H]3C/C=C\CCN(C3=O)[C@@H](Cc3ccc(C(F)(F)F)cc3)C(=O)N(C)CC(=O)N[C@@H](CCc3cc(F)c(C(F)(F)F)c(F)c3)C(=O)N2C1 [PP1276]	0.066
CC[C@H](C)[C@@H]1NC(=O)[C@H](CC(C)C)N(C)C(=O)C[C@@H](C(=O)N2C[C@@H](C)O[C@@H](C)C2)N(C)C(=O)[C@H](C2CCCC2)N(C)C(=O)C2(CCCC2)NC(=O)[C@@H]2CCCN2C(=O)[C@H](CCc2ccc(C(F)(F)F)c(Cl)c2)NC(=O)CN(C)C(=O)[C@H](Cc2ccc(F)cc2)N2CCCCC[C@@H](C2=O)N(C)C(=O)CN(C)C1=O [PP1151]	0.64
CCCOC[C@H]1C(=O)N[C@@H]([C@@H](C)CC)C(=O)N(C2CC2)CC(=O)N(C)[C@H]2C/C=C\CCN(C2=O)[C@@H](CC2CCC(F)(F)CC2)C(=O)N(C)CC(=O)N[C@@H](CCc2ccc(C(F)(F)F)c(OC)c2)C(=O)N2C[C@H](OCC)C[C@H]2C(=O)N(C)C2(CCC2)C(=O)N(C)[C@@H](C2CCCC2)C(=O)N(C)[C@H](C(=O)N(C)C)CC(=O)N1C [PP2354]	0.79

###

- Tested on: human lung cancer strain NCI-H441
- experimental_details: NCI-H441 cell proliferation inhibitory activity (CellTiter-Glo, 4 days)
- Type: cell-based
- cond: NCI-H441 cells, 4 days, read-out: NCl-H441 IC50
IC50 values for the molecules below.
measurement_label: IC50 (nM)

molecule	measurement_label	unit_symbol	value_observed
CCC[C@H]1C(=O)N[C@@H]([C@@H](C)CC)C(=O)N(C2CC2)CC(=O)N(C)[C@H]2C/C=C\CCN(C2=O)[C@@H](Cc2ccc(C)cc2)C(=O)N(C)CC(=O)N[C@@H](CCc2ccc(C(F)(F)F)c(OC)c2)C(=O)N2C[C@H](OCC)C[C@H]2C(=O)NC2(CC(C)(C)C2)C(=O)N(C)[C@@H](CC(C)(C)C)C(=O)N(C)[C@H](C(=O)N(C)C)CC(=O)N1C [PP2722]	IC50	nM	13.9
CCO[C@@H]1C[C@H]2C(=O)NC3(CCC3)C(=O)N(C)[C@@H](C3CCCC3)C(=O)N(C)[C@H](C(=O)N(C)C)CC(=O)N(C)[C@@H](CC(C)C)C(=O)N[C@@H]([C@@H](C)CC)C(=O)N(C)CC(=O)N(C)[C@H]3C/C(F)=C\CCN(C3=O)[C@@H](Cc3ccc(C(F)(F)F)cc3)C(=O)N(C)CC(=O)N[C@@H](CCc3cc(F)c(C(F)(F)F)c(F)c3)C(=O)N2C1 [PP3514]	IC50	nM	12.2
CCC[C@H]1C(=O)N[C@@H]([C@@H](C)CC)C(=O)N(C)CC(=O)N(C)[C@H]2C/C=C\CCN(C2=O)[C@@H](Cc2ccc(C)cc2)C(=O)N(C)CC(=O)N[C@@H](CCc2ccc(C(F)(F)F)c(OC)c2)C(=O)N2C[C@H](OCC)C[C@H]2C(=O)NC2(CC(C)(C)C2)C(=O)N(C)[C@@H](CC2CCC2)C(=O)N(C)[C@H](C(=O)N(C)C)CC(=O)N1C [PP2753]	IC50	nM	52
CCC[C@H]1C(=O)N[C@@H](C2CCCC2)C(=O)N(C)CC(=O)N(C)[C@H]2C/C=C\CCN(C2=O)[C@@H](Cc2ccc(C)cc2)C(=O)N(C)CC(=O)N[C@@H](CCc2ccc(C(F)(F)F)c(Cl)c2)C(=O)N2CC3(CC3)C[C@H]2C(=O)N(C)C2(CCC2)C(=O)N(C)[C@@H]([C@@H](C)CC)C(=O)N(C)[C@H](C(=O)N(C)C)CC(=O)N1C [PP3326]	IC50	nM	12.6
CCOC[C@H]1C(=O)N[C@@H]([C@@H](C)CC)C(=O)N(C)CC(=O)N(C)[C@H]2C/C=C\CCN(C2=O)[C@@H](Cc2ccc(C(F)(F)F)cc2)C(=O)N(C)CC(=O)N[C@@H](CCc2ccc(Cl)c(Cl)c2)C(=O)N2C[C@H](OCC)C[C@H]2C(=O)NC2(CC(C)(C)C2)C(=O)N(C)[C@@H](CC2CCC2)C(=O)N(C)[C@H](C(=O)N(C)C)CC(=O)N1C [PP2767]	IC50	nM	62.6
